- Procedure Details: qHTS drug screen for cell cycle checkpoint inhibitors in PARPi-resistant BRCA-mutant ovarian cancer cell lines. (AID 1963452)
- Condition Details: PEO1/OlaR viability, CellTiter-Glo luminescence, 96 h; measured here: PEO4 Z-AUC; stronger effect = lower value
Endpoint: Z-AUC

- Smiles String: "CC(C)Nc1cc(C(F)(F)F)cc2nc(NC(=O)c3cccnc3)nn12"
  Z-AUC: 1.12

Lookup: Name the recorded Z-AUC of the item "C=CC(=O)N1CCC[C@@H](n2nc(-c3ccc(Oc4ccccc4)cc3)c3c(N)ncnc32)C1" in your answer.
Found: 0.517

Lookup: Name the recorded Z-AUC of the item "C=CCn1c(=O)c2cnc(Nc3ccc(N4CCN(C)CC4)cc3)nc2n1-c1cccc(C(C)(C)O)n1" in your answer.
Found: -1.42

Lookup: Name the recorded Z-AUC of the item "Nc1ccn([C@@H]2CS[C@H](CO)O2)c(=O)n1" in your answer.
Found: -0.547

Lookup: Name the recorded Z-AUC of the item "COC(=O)C[C@](O)(CCCC(C)(C)O)C(=O)O[C@@H]1C(OC)=C[C@]23CCCN2CCc2cc4c(cc2[C@H]13)OCO4" in your answer.
Found: -2.6

Lookup: Name the recorded Z-AUC of the item "COC(=O)Nc1nc2ccc(C(=O)c3ccc(F)cc3)cc2[nH]1" in your answer.
Found: -1.13

Lookup: Name the recorded Z-AUC of the item "CCCCCN(CCC12CC3CC(CC(C3)C1)C2)C(=O)NCCCc1ccncc1" in your answer.
Found: -0.141

---

- Procedure Details: Quantitative High-Throughput drug screen in 47 multiple myeloma cell lines against the NCATS MIPE library collection: OCIMY1_PLB cell viability assay (AID 1918979); note: nearly all actives have a fitted effect of over 35% in size;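 for viability: 100% = DMSO-only wells and 0% = cell-free media-only wells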
- Condition Details: OCI-MY1 myeloma viability, CellTiter-Glo ATP, 48 h; series mostly up to 45.8 µM
Results filed as inconclusive are left out. Active and inactive are the calls of the source. The call rests on the fitted dose curve; in most records, active means well fitted cell-killing curve with a large enough effect; inconclusive means small, poorly fitted or top-dose-only effect, or effect the other way; inactive means no such curve, though single readings can be large or run the other way.
# output must be one of TRUE = active, FALSE = inactive

Field: example entries. Status: answers known.
- Compound: "COc1cc(C(=O)N2CCC(N3CCN(C)CC3)CC2)ccc1Nc1ncc2c(n1)N(C)c1ccccc1C(=O)N2C"
  Cat: "TRUE"
- Compound: "COC(=O)[C@]12CCC(C)(C)C[C@@H]1[C@@H]1C(=O)C=C3[C@@]4(C)C=C(C#N)C(=O)C(C)(C)[C@@H]4CC[C@@]3(C)[C@]1(C)CC2"
  Cat: "TRUE"
- Compound: "N#Cc1c(O)c2c(-c3ccc(-c4ccccc4O)cc3)csc2[nH]c1=O"
  Cat: "FALSE"
- Compound: "Cc1cc(Nc2cc(N3CCN(C)CC3)nc(C=Cc3ccccc3)n2)n[nH]1"
  Cat: "TRUE"
- Compound: "CC(C)=CCCC(C)=CCCC(C)=CCSc1ccccc1C(=O)O"
  Cat: "TRUE"
- Compound: "Clc1cccc(-n2nnnc2NCc2ccccc2Oc2ccccn2)c1Cl"
  Cat: "FALSE"

Lookup: I'd appreciate the recorded outcome for "CC1(C)O[C@@H]2C[C@@H]3[C@H]4C[C@@H](F)C5=CC(=O)C=C[C@]5(C)[C@@]4(F)[C@@H](O)C[C@]3(C)[C@]2(C(=O)CO)O1" from this test.
Found: FALSE

Lookup: I'd appreciate the recorded outcome for "CCN(CC)CCCCNc1ncc2cc(-c3cc(OC)cc(OC)c3)c(NC(=O)NC(C)(C)C)nc2n1" from this test.
Found: FALSE
